biological target: BLM642-1290 R979A (UniProt P54132 642-1290, R979A); test: fluorescence anisotropy
Sequence (P54132 642-1290 R979A): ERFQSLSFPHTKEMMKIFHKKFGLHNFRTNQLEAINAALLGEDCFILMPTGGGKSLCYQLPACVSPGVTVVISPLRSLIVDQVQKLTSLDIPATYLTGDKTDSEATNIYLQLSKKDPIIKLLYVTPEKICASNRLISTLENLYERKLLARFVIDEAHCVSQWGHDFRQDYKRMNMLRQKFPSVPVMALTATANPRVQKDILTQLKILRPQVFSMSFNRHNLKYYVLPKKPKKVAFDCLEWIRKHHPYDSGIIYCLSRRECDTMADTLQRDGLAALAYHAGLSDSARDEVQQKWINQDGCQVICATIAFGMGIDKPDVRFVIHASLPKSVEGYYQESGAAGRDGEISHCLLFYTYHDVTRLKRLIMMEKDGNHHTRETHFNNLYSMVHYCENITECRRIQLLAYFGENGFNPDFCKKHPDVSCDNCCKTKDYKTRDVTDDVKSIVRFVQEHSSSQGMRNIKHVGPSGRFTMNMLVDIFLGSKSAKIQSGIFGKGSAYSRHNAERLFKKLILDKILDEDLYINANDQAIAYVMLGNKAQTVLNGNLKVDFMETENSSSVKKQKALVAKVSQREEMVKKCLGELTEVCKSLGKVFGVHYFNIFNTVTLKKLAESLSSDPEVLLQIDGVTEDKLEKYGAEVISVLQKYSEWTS
quantity.name: pKd
Answers are plain numbers, as −log10 of the molar value.

Req: Fill blank: measured pKd of the binder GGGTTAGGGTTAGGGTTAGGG (ssDNA) [oligonucleotide D (21-mer)] is ____.
Resp: 8.72
